Below is a list of entries, each paired with its recorded self-cleavage kobs at 40 uM GlcN6P value.
B1: glmS ribozyme (parent)
chain: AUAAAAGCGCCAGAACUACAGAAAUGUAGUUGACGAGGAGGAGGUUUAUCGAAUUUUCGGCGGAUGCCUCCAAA

variants of: B1; assay: self-cleavage kobs at 40 uM GlcN6P; higher = faster cleavage; RNA array; details: with glucosamine-6-phosphate
This sample holds only a part of the variants without activity.

>  <entry-sequence>
AUAAAAGCGCCAGAACUACAGAAAUGUAGUUGACGAGGAGGAGGUUUAUCGAAUUGUCGGCGGAUGCCACCAAA [U56G U69A]

>  <result>
4.08e-05 s⁻¹

$$$$
>  <entry-sequence>
AUAAAAGCGCCAGAGCUACAGAAAUGUAGUUGACGAGGAGGAGGGUUAUCGAAUUUUCGGCGGAUGCCUCCAAA [A15G U45G]

>  <result>
0.000211 s⁻¹

$$$$
>  <entry-sequence>
AUAAAAGCGCCAGAACUACAGAAAUGUAGUUGACGAGGAGGAGCUUUCUCGAAUUUUCGGCGGAUGCCUCCAAA [G44C A48C]

>  <result>
< 1e-05 s⁻¹

$$$$
>  <entry-sequence>
AUAAAAGCGCCAGAACUACAGAAAUGUAGUUGACGAGGAUGAGGUUUGUCGAAUUUUCGGCGGAUGCCUCCAAA [G40U A48G]

>  <result>
< 1e-05 s⁻¹

$$$$
>  <entry-sequence>
AUAAAAGCGCCAGAACUACAGAAAUGUAGUUGACGAGGAGGAGAUUUAUCGAAUUUUCGGCGCAUGCCUCCAAA [G44A G63C]

>  <result>
< 1e-05 s⁻¹

$$$$

Task: GET /values?readout=self-cleavage kobs at 40 uM GlcN6P&item= AUAAAAGCGCCAGAACUACAGAAAUGUAGUUGCCGAGGAGGAGGUUUAUCAAAUUUUCGGCGGAUACCUGCAAA [A33C G51A G66A C70G]
Result: < 1e-05 s⁻¹

Task: GET /values?readout=self-cleavage kobs at 40 uM GlcN6P&item= AUAAAAGCGCCAGAACUACAGAAAUGUAGUUGAUGAGGAGGAGGUUUAUCGGAUUUUCGGCGGAUGCCUCCAAA [C34U A52G]
Result: < 1e-05 s⁻¹

Task: GET /values?readout=self-cleavage kobs at 40 uM GlcN6P&item= AUAAAUCGGCCAGAACUACAGAAAUGUAGUUGACGAGUAGGAGGUUUAUCGAAUUUUCGGCGGAUGCCUCCAAA [A6U G7C C8G G38U]
Result: < 1e-05 s⁻¹

Task: GET /values?readout=self-cleavage kobs at 40 uM GlcN6P&item= AUAAAAGCGCCAGAACUACAGAAAUGUAGUUGACGAGGAGGAGGUUUAUCGAACUUUCGGCGGAUGCCUUCAAA [U54C C70U]
Result: 0.000628 s⁻¹

Task: GET /values?readout=self-cleavage kobs at 40 uM GlcN6P&item= AUAAAAGCGCCAGAACUACAGAAAUGUAGUUGACUAGGAGGAGGUAUAUCGAAUUUUUGGCGGAUGCCUCCAAA [G35U U46A C58U]
Result: < 1e-05 s⁻¹

Task: GET /values?readout=self-cleavage kobs at 40 uM GlcN6P&item= AUAAAAGCACCAGAACUACAGAAAUGUAGUUGACGAGCAGGAGGUUUAUCGAAUUUUCGGCGGAUGCCUCCAAA [G9A G38C]
Result: < 1e-05 s⁻¹

Task: GET /values?readout=self-cleavage kobs at 40 uM GlcN6P&item= AUAAAAGCGCCAGAACUACAGAAAUGUAGUUGUCGAGGAGGAGGUUUAUCGAGUUUUCGGCGGAUGCCUCCAAA [A33U A53G]
Result: < 1e-05 s⁻¹

Task: GET /values?readout=self-cleavage kobs at 40 uM GlcN6P&item= AUAAAAGCGCCAGAACUACAGAAAUGUAGUAGACGAGGGGGAGGUUUAUCGAAUUUUCGGCGGAUGCCUCCAAA [U31A A39G]
Result: 0.000491 s⁻¹

Task: GET /values?readout=self-cleavage kobs at 40 uM GlcN6P&item= AUAAAAGCGCCAGAACUACAGAAAUGUAGUUGACGAGGAGGAGGUUUAUCGAAUGUUCGGCGGAAGACUCCAAA [U55G U65A C67A]
Result: 6.53e-05 s⁻¹

Task: GET /values?readout=self-cleavage kobs at 40 uM GlcN6P&item= AUAAAAGCUCCAGAACUACAGAAAUGUAGUUGACGAGGAGGAGGUUUAUCAAAUUUUCGGCGGAUGCCUCCAAA [G9U G51A]
Result: < 1e-05 s⁻¹

Task: GET /values?readout=self-cleavage kobs at 40 uM GlcN6P&item= AUAAAAGGGCCAGAACUACAGAAAUGUAGUUGACGAGGAGAAGGUUUAUCGAAUUUUCGGCGGAUGCCUCCAAA [C8G G41A]
Result: < 1e-05 s⁻¹

Task: GET /values?readout=self-cleavage kobs at 40 uM GlcN6P&item= AUAAAAGCGCCGGAACUACAGAAAUGUAGUUGACGAGGAGGAGGUUUAUCGAAUUUCCGGCGGAUGCCUCCAAA [A12G U57C]
Result: < 1e-05 s⁻¹
